List of IC50 values.
tested on: Klebsiella pneumoniae (ATCC 11296); assay: Antimicrobial activity (growth, OD 600 nm); type: cell-based; settings: 0.001–10 µM; read-out: IC50 K. pneumoniae
Give the value, in units of nM, as a plain number.

Past entries and their recorded results:
CCn1cc(C(=O)[O-])c(=O)c2cc(F)c(N3CCNCC3)cc21.Cc1n(CCO)cc[n+]1C [[C2OHDMIM][Nor]]	178
COCC[n+]1ccn(C)c1.O=C([O-])c1cn(C2CC2)c2cc(N3CCNCC3)c(F)cc2c1=O [[C3OMIM][Cip]]	47.6
CCn1cc(C(=O)[O-])c(=O)c2cc(F)c(N3CCNCC3)cc21.C[N+](C)(C)CCO [[Ch][Nor]]	199

Attention now shifts to the item below.
Incoming: Write down the reported IC50 (system: Klebsiella pneumoniae (ATCC 11296)) of CCCCCCCCCCCCCCCC[n+]1ccccc1.CCn1cc(C(=O)[O-])c(=O)c2cc(F)c(N3CCNCC3)cc21 [[C16Py][Nor]]
Outgoing: 203

* * *

Catalogue of compounds with associated RDIC50 B. subtilis
test system: Bacillus subtilis (ATCC 6633); experiment: Antimicrobial activity (growth, OD 600 nm); assay type: cell-based; conditions: relative decrease of inhibitory concentration vs ciprofloxacin
Reply briefly: the number, and no unit.

C[n+]1ccn(CCO)c1.O=C([O-])c1cn(C2CC2)c2cc(N3CCNCC3)c(F)cc2c1=O [[C2OHMIM][Cip]]	0.2

Incoming: # return recorded RDIC50 B. subtilis for entry CCCCCCCCCCCCCCCC[n+]1ccccc1.O=C([O-])c1cn(C2CC2)c2cc(N3CCNCC3)c(F)cc2c1=O [[C16Py][Cip]]
Outgoing: 0.6

Incoming: Answer with the recorded RDIC50 B. subtilis of CCn1cc[n+](C)c1.O=C([O-])c1cn(C2CC2)c2cc(N3CCNCC3)c(F)cc2c1=O [[EMIM][Cip]] only.
Outgoing: 0.2

Incoming: Look up and state reported RDIC50 B. subtilis for C[N+](C)(C)CCO.O=C([O-])c1cn(C2CC2)c2cc(N3CCNCC3)c(F)cc2c1=O [[Ch][Cip]]
Outgoing: 0.2

Incoming: For the compound Cc1n(CCO)cc[n+]1C.O=C([O-])c1cn(C2CC2)c2cc(N3CCNCC3)c(F)cc2c1=O [[C2OHDMIM][Cip]] , report RDIC50 B. subtilis.
Outgoing: 0.3

Incoming: Dear colleague, please send me the reported RDIC50 B. subtilis for COCC[n+]1ccn(C)c1.O=C([O-])c1cn(C2CC2)c2cc(N3CCNCC3)c(F)cc2c1=O [[C3OMIM][Cip]] when you can.
Outgoing: 0.2

* * *

system: Klebsiella pneumoniae (ATCC 11296); assay: Antimicrobial activity (growth, OD 600 nm); assay type: cell-based; conditions: 0.001–10 µM; read-out: IC50 K. pneumoniae
# key: entry, value: IC50
In your response, the unit should come after the numeric value.

Some molecules with known IC50 results, for comparison:
Cc1n(CCO)cc[n+]1C.O=C([O-])c1cn(C2CC2)c2cc(N3CCNCC3)c(F)cc2c1=O [[C2OHDMIM][Cip]]	51 nM
CCn1cc[n+](C)c1.O=C([O-])c1cn(C2CC2)c2cc(N3CCNCC3)c(F)cc2c1=O [[EMIM][Cip]]	64.8 nM
C[n+]1ccn(CCO)c1.O=C([O-])c1cn(C2CC2)c2cc(N3CCNCC3)c(F)cc2c1=O [[C2OHMIM][Cip]]	36.4 nM

Would you kindly look at the next entry?
Incoming: Return reported IC50 for target or system Klebsiella pneumoniae (ATCC 11296), item C[N+](C)(C)CCO.O=C([O-])c1cn(C2CC2)c2cc(N3CCNCC3)c(F)cc2c1=O [[Ch][Cip]] .
Outgoing: 51.1 nM
